system: HeLa; assay: Antiproliferative activity against HeLa cells by SRB assay; assay type: functional, cell-based; settings: Homo sapiens
pIC50: −log10 of the molar value.

>  <Smi>
C/C(=N\Nc1nc2ccccc2o1)c1ccc(C)nn1

>  <Relation Symbol>
=

>  <pIC50>
5.47

$$$$
>  <Smi>
c1ccc(/C(=N\Nc2nc3ccccc3o2)c2ccccn2)cc1

>  <Relation Symbol>
=

>  <pIC50>
7.37

$$$$
>  <Smi>
CC(C)(C)/C(=N\Nc1nc2ccccc2o1)c1ccccn1

>  <Relation Symbol>
<

>  <pIC50>
5.00

$$$$
>  <Smi>
c1ccc(C(=NNc2nc3ccccc3o2)c2ccccn2)nc1

>  <Relation Symbol>
=

>  <pIC50>
6.81

$$$$
>  <Smi>
c1ccc(/C(=N/Nc2nc3ccccc3o2)C2CC2)nc1

>  <Relation Symbol>
=

>  <pIC50>
5.35

$$$$
>  <Smi>
C/C(=N\Nc1nc2ccccc2o1)c1cccnc1

>  <Relation Symbol>
<

>  <pIC50>
4.00

$$$$
>  <Smi>
C/C(=N\Nc1nc2ccccc2o1)c1ccc2ccccc2n1

>  <Relation Symbol>
=

>  <pIC50>
5.34

$$$$
>  <Smi>
C/C(=N\Nc1nc2ccccc2o1)c1nccc2ccccc12

>  <Relation Symbol>
=

>  <pIC50>
6.47

$$$$
>  <Smi>
C/C(=N\Nc1nc2ccccc2o1)c1cnc(C)cn1

>  <Relation Symbol>
=

>  <pIC50>
6.43

$$$$
>  <Smi>
CC(C)/C(=N\Nc1nc2ccccc2o1)c1ccccn1

>  <Relation Symbol>
=

>  <pIC50>
6.73

$$$$
>  <Smi>
C/C(=N\Nc1nc2ccccc2o1)c1cc2ccccc2cn1

>  <Relation Symbol>
=

>  <pIC50>
7.00

$$$$
>  <Smi>
C/C(=N\Nc1nc2ccccc2o1)c1cccc[n+]1[O-]

>  <Relation Symbol>
=

>  <pIC50>
6.54

$$$$
